- TARGET_DESC: UniProt P00797
- Sequence (P00797 whole entry): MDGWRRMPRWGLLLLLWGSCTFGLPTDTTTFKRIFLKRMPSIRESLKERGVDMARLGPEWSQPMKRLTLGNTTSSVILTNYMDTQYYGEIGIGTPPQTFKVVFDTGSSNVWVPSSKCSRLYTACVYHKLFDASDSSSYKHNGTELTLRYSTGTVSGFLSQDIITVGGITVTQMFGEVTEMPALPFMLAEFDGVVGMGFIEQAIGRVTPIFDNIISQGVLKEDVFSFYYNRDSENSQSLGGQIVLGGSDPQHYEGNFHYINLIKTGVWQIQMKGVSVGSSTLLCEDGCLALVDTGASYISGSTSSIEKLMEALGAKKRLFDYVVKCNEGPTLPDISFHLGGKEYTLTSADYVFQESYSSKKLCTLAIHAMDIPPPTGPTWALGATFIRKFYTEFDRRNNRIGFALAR
MEASURE_NAME: IC50 (nM)

Known results for molecules:
MOLECULE	RESULT_UNITS	VALUE_REPORTED
CCCc1nc(-c2cccnc2)cn2c(C(Cc3cccnc3)C(=O)NC(CC3CCCCC3)C(O)CC(C(=O)NCCCCO)C(C)C)nnc12 (stereo not drawn)	nM	0.3
CCCc1nc(-c2cccnc2)cn2c(C(Cc3cccnc3)C(=O)NC(CC3CCCCC3)C(O)CC(C(=O)N3CCOCC3)C(C)C)nnc12 (stereo not drawn)	nM	64
CCCc1nc(-c2cccnc2)cn2c(C(Cc3cccnc3)C(=O)NC(CC3CCCCC3)C(O)CC(C(=O)NCCN)C(C)C)nnc12 (stereo not drawn)	nM	78
CCCc1nc(-c2cccnc2)cn2c(C(Cc3cccnc3)C(=O)NC(CC3CCCCC3)C(O)CC(C(=O)NCc3ccccn3)C(C)C)nnc12 (stereo not drawn)	nM	0.6
CCCCNC(=O)C(CC(O)C(CC1CCCCC1)NC(=O)C(Cc1cccnc1)c1nnc2c(CCC)nc(-c3cccnc3)cn12)C(C)C (stereo not drawn)	nM	0.2

a = CCCCNC(=O)C(CC(O)C(CC1CCCCC1)NC(=O)Cc1nnc2c(CC(C)C)nc(-c3ccccc3)cn12)C(C)C (stereo not drawn)
b = CCCc1nc(-c2cccnc2)cn2c(C(Cc3cccnc3)C(=O)NC(CC3CCCCC3)C(O)CC(C(=O)NCCN(C)C)C(C)C)nnc12 (single isomer, unassigned; less polar)
Of the two listed items, a and b , which carries the larger IC50 figure? Please reply using the label of the selected record.
a
